Molecular target: HDAC4 (Homo sapiens, UniProt P56524)
Sequence (P56524 655-1084 limits assumed): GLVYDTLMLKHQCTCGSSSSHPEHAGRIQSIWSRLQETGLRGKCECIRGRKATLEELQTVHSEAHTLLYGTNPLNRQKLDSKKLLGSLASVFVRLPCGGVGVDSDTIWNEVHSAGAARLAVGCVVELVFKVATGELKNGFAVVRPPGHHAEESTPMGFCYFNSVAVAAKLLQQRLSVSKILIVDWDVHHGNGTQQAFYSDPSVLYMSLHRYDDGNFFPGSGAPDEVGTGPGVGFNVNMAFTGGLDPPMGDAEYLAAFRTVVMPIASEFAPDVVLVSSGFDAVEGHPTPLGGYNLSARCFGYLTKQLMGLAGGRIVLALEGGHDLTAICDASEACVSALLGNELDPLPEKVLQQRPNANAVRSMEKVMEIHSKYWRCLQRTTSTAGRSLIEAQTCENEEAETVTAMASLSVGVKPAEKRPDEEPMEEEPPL
Test: In vitro HDAC activity assay (Reaction Biology)
Assay type: biochemical
Details: cell-free; read-out: IC50 values of HDAC8 inhibitors, HDAC4
pIC50: −log10 of the molar value.
Recorded metric: pIC50

Prompt: For the molecule shown here, O=C(NO)c1cccc2ccccc12 [Cpd2, 1-naphthohydroxamic acid] , give the reported pIC50.
Response: < 4.12

---

Recorded metric: IC50

Prompt: # value lookup — system HDAC1 (Homo sapiens), readout IC50, item O=C(NO)c1cccc2ccccc12 [Cpd2, 1-naphthohydroxamic acid]
Response: > 75.6 µM

---

Test: Determination of MTD and dose-limiting toxicities
Settings: NMRI Foxn1 nude, mouse, in vivo, ip
Procedure: Each dose was tested in a cohort of three animals. Resulting MTDs were validated within cohorts of eight animals for each inhibitor. […] As a reference, the blood of 12 untreated NMRI Foxn1 nude mice was analyzed. […] Vorinostat was used as a control for unselective HDAC inhibition. DLTs were monitored by observation of general condition and determination of body weight. We used several criteria for objectively measuring DLT. […]
Recorded metric: MTD (mg/kg/day)
Expressed in mg/kg/day, but write only the number.

Prompt: Name the recorded MTD for O=C(NO)c1cccc2ccccc12 [Cpd2, 1-naphthohydroxamic acid] .
Response: 50

---

Assay: Determination of inhibitor plasma half-life
Type: in vivo, mouse
Details: NMRI Foxn1 nude, mouse, plasma, ip, 100 mg/kg, intraperitoneal 100 mg/kg, NMRI Foxn1 nude mice; read-out: half-life in blood plasma
Recorded metric: half-life

Prompt: I would be grateful if you could share the reported half-life for O=C(NO)c1cccc2ccccc12 [Cpd2, 1-naphthohydroxamic acid] .
Response: ~15 min

---

Target: HDAC3 (Homo sapiens)
Sequence (O15379 3-316 limits assumed): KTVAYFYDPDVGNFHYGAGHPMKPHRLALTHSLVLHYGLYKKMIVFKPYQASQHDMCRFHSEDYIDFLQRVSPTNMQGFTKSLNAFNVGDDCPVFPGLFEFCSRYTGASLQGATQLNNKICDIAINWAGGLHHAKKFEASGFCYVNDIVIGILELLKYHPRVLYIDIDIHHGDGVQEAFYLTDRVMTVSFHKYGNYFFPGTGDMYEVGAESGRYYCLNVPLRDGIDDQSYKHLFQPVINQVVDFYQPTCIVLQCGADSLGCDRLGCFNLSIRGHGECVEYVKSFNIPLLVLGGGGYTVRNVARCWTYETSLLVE
Sequence (Q9Y618 395-489 partner limits assumed): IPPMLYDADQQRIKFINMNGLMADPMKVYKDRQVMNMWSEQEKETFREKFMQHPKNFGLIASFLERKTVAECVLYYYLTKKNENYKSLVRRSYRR
Recorded metric: IC50

Prompt: Which IC50 value belongs to O=C(NO)c1cccc2ccccc12 [Cpd2, 1-naphthohydroxamic acid] ?
Response: > 75.6 µM

---

Molecular target: HDAC7 (Homo sapiens)
Sequence (Q8WUI4 512-865 limits assumed): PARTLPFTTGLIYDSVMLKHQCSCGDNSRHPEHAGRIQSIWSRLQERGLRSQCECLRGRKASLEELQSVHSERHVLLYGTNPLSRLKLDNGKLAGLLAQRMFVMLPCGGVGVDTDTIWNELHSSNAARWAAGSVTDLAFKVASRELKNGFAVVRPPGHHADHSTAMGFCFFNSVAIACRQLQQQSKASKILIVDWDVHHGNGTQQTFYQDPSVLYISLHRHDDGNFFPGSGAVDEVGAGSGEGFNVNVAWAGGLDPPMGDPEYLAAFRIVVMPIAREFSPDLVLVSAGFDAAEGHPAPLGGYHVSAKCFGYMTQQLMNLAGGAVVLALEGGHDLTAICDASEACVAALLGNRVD
pIC50: −log10 of the molar value.
Recorded metric: pIC50

Prompt: Item under review: O=C(NO)c1cccc2ccccc12 [Cpd2, 1-naphthohydroxamic acid] . Reported pIC50?
Response: < 4.12

---

Molecular target: HDAC2 (Homo sapiens)
Sequence (Q92769 9-322 limits assumed): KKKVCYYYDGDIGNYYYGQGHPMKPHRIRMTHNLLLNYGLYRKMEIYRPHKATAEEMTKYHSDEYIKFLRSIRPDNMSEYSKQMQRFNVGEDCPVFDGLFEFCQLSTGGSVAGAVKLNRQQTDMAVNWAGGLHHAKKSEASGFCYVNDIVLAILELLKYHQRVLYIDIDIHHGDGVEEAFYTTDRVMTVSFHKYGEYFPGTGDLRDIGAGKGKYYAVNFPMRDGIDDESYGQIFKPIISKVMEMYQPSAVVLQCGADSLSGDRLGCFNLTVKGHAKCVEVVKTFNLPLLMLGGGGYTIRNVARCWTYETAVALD
pIC50: −log10 of the molar value.
Recorded metric: pIC50

Prompt: Param readout= pIC50; system= HDAC2 (Homo sapiens); entry= O=C(NO)c1cccc2ccccc12 [Cpd2, 1-naphthohydroxamic acid] ; returns value.
Response: < 4.12

---

Biological target: HDAC11 (Homo sapiens, UniProt Q96DB2)
Sequence (Q96DB2 14-326 limits assumed): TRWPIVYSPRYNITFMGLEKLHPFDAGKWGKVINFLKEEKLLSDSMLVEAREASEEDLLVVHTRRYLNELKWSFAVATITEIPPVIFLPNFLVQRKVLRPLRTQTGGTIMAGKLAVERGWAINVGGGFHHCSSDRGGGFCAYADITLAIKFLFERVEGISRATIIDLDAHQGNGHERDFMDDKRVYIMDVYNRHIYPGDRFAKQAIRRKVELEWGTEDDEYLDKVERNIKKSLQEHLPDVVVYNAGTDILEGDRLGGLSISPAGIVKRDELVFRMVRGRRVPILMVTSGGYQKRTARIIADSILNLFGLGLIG
pIC50: −log10 of the molar value.
Recorded metric: pIC50

Prompt: Given the entry O=C(NO)c1cccc2ccccc12 [Cpd2, 1-naphthohydroxamic acid] , report its measured pIC50.
Response: < 4.12
